Sourced from paper PMC6271890

pIC50 overview
System: lung cancer (SK-MES-1) cells
Method Summary: Antiproliferative assay (MTT reduction), SK-MES-1 cells
Assay type: cell-based, human
Test Context: Homo sapiens, 72 h; SK-MES-1 lung cancer cells; 3 days treatment; MTT; mean ± SD
pIC50: −log10 of the molar value.
Result Type: pIC50

[[record]]
compound = "CC(C)c1ccc2c(c1)CCC1[C@](C)(COC(=O)CCCCc3cn(-c4cccc(Cl)c4)nn3)CCC[C@]21C (stereo partly shown)"
bound_operator = "<"
numeric_readout = 4.00

[[record]]
compound = "CC(C)c1ccc2c(c1)CCC1[C@](C)(COC(=O)CCCCc3cn(CSc4ccccc4)nn3)CCC[C@]21C (stereo partly shown)"
bound_operator = "="
numeric_readout = 4.37

[[record]]
compound = "CC(C)c1ccc2c(c1)CCC1[C@](C)(C(=O)OCCc3cn(CSc4ccccc4)nn3)CCC[C@]21C (stereo partly shown)"
bound_operator = "="
numeric_readout = 4.54

[[record]]
compound = "COc1ccc(-n2cc(CCCCC(=O)OC[C@]3(C)CCC[C@]4(C)c5ccc(C(C)C)cc5CCC34)nn2)cc1 (stereo partly shown)"
bound_operator = "<"
numeric_readout = 4.00

[[record]]
compound = "Cc1ccc(S(=O)(=O)n2cc(CCCCC(=O)OC[C@]3(C)CCC[C@]4(C)c5ccc(C(C)C)cc5CCC34)nn2)cc1 (stereo partly shown)"
bound_operator = "="
numeric_readout = 4.13

[[record]]
compound = "CC(C)c1ccc2c(c1)CCC1[C@](C)(C(=O)OCCc3cn(-c4ccccc4)nn3)CCC[C@]21C (stereo partly shown)"
bound_operator = "<"
numeric_readout = 4.00

[[record]]
compound = "Cc1ccc(S(=O)(=O)n2cc(CCC(=O)OC[C@]3(C)CCC[C@]4(C)c5ccc(C(C)C)cc5CCC34)nn2)cc1 (stereo partly shown)"
bound_operator = "="
numeric_readout = 4.07

